Assay: Solubility Test-1: dissolution of ginkgo leaf extract dry powder in aqueous solution of the compound
Format: physicochemical
Design: key: .largecircle.: dissolved to form a transparent aqueous solution; X: insoluble
Conditions: 5 g compound in 100 ml water at 20° C., 10 g ginkgo leaf extract, shaken 10 minutes
Where a name gives a salt, the structure may show the parent alone.
ENDPOINT_LABEL: Dissolution state

Example cases with answers are listed next.
# MOLECULE, Dissolution state
data = [
    ("O=C(O)c1cccnc1 [Nicotinic acid]", "X"),
    ("N#CN=C(N)N [Dicyandiamide]", "X"),
    ("OC[C@H]1O[C@@](CO)(O[C@H]2O[C@H](CO)[C@@H](O)[C@H](O)[C@H]2O)[C@@H](O)[C@@H]1O [Sucrose]", "X"),
    ("CCCCCCCCCCCC[N+](C)(C)C.[Cl-] [Lauryltrimethylammonium chloride, Lauryltrimethyl-ammonium chloride]", ".largecircle."),
    ("Cc1ncc(C[n+]2csc(CCO)c2C)c(N)n1 [Thiamine hydrochloride]", ".largecircle."),
    ("CC(C)(CO)[C@@H](O)C(=O)NCCC(=O)O [Calcium pantothenate]", ".largecircle."),
    ("NC(=O)c1cccnc1 [Nicotinic acid amide]", ".largecircle."),
    ("C[C@@H](O)[C@H](N)C(=O)O [Threonine]", ".largecircle."),
    ("Cc1ncc(CO)c(CO)c1O.Cl [Pyridoxine hydrochloride]", ".largecircle."),
    ("Cc1cc2nc3c(=O)[nH]c(=O)nc-3n(C[C@H](O)[C@H](O)[C@H](O)CO)c2cc1C [Riboflavin]", "X"),
]

Request: Name the recorded Dissolution state for CSCC[C@H](N)C(=O)O [Methionine] .
Result: X

Request: Now give it for NC(N)=O [Urea] too.
Result: .largecircle.

Request: Now give it for OC[C@@H](O)[C@@H](O)[C@H](O)[C@@H](O)CO [Sorbitol] too.
Result: X

Request: Now give it for OCC(O)CO [Glycerin] too.
Result: X

----------
Assay: Solubility of the organic/inorganic compound in water
Structures can show the parent of a compound that is named as a salt.
Hi there, I'd appreciate the recorded solubility for every entry that follows.
Form entry: value (mg/mL) — number only.

Request: Name the recorded solubility for Cc1ncc(C[n+]2csc(CCO)c2C)c(N)n1 [Thiamine hydrochloride] .
Result: 1000

Request: Now give it for NC(=O)c1cccnc1 [Nicotinic acid amide] too.
Result: 500

Request: Now give it for `OC[C@@H](O)[C@@H](O)[C@H](O)[C@@H](O)CO` too.
Result: 720

Request: Now give it for `O=C(O)c1cccnc1` too.
Result: 16

Request: Now give it for `Cc1cc2nc3c(=O)[nH]c(=O)nc-3n(C[C@H](O)[C@H](O)[C@H](O)CO)c2cc1C` too.
Result: 0.1

Request: Now give it for `CSCC[C@H](N)C(=O)O` too.
Result: 33

Request: Now give it for Cl.N[C@@H](Cc1c[nH]cn1)C(=O)O [Histidine hydrochloride] too.
Result: 420

----------
Test: physchem
Settings: water
ENDPOINT_LABEL: solubility (mg/mL)
Form entry: value (mg/mL) — number only.

Request: Name the recorded solubility for `OC[C@H]1O[C@@](CO)(O[C@H]2O[C@H](CO)[C@@H](O)[C@H](O)[C@H]2O)[C@@H](O)[C@@H]1O` .
Result: 664

Request: Now give it for `NCCS(=O)(=O)O` too.
Result: 90

Request: Now give it for N#CN=C(N)N [Dicyandiamide] too.
Result: 32

Request: Now give it for `Oc1cccc(O)c1O` too.
Result: 625

Request: Now give it for `CC(C)[C@H](N)C(=O)O` too.
Result: 85

Request: Now give it for CCCCCCCCCCCC[N+](C)(C)C.[Cl-] [Lauryltrimethylammonium chloride, Lauryltrimethyl-ammonium chloride] too.
Result: 760

Request: Now give it for Cc1ncc(CO)c(CO)c1O.Cl [Pyridoxine hydrochloride] too.
Result: 190

Request: Now give it for `CC[C@H](C)[C@H](N)C(=O)O` too.
Result: 38
